Across several studies, compounds have been characterized by their IC50 on MERTK (Homo sapiens, UniProt Q12866); a selection follows.

Cc1ccc(C(=O)N2CC[C@@H](NC(=O)c3cc(-c4cnn(C)c4)cnc3N)C2)cc1C :: > 1 µM
COc1ccn(-c2ccc(F)cc2)c(=O)c1C(=O)Nc1ccc(Oc2ncnc3cc(OCCCN4CCOCC4)c4c(c23)OCCO4)c(F)c1 :: ≤ 0.05 µM
Cn1cc(-c2cnc(N)c(C(=O)N[C@@H]3CCN(C(=O)Oc4ccc5cc(O)ccc5c4)C3)c2)cn1 :: 0.1 to 1 µM
COC[C@H](C)Nc1ncc2c(OC3CCOCC3)ncc(C3=CCC4(CC3)OCCO4)c2n1 :: 0.1 to 1 µM
COC[C@H](C)Nc1ncc2c(-c3cnn(C4COC4)c3)cc([C@@H]3CC[C@H](O)[C@@H](C)C3)n2n1 :: ≤ 0.1 µM
O[C@H]1CC[C@H](c2cnc(OC3CCNCC3)c3cnc(NC4CCC(F)(F)CC4)nc32)CC1 :: ≤ 0.1 µM

Then there is this compound:
Req: Tell me IC50 reported for COc1nc(Nc2ccc(CN3CCN(C)CC3)cc2)nc2[nH]cc(-c3ccc(OCc4ccccc4)cc3F)c12
Resp: > 1 µM
